src = ChEMBL document CHEMBL4513146

System: Escherichia coli
Details: Concentration 32 ug.mL-1;; ASSAY_TEST Inhibition of Bacterial Growth; detection method Absorption (OD600); MEDIA CAMHB; plate type 384well; NBS; CORNING #3640; time 18 hr
Description: Antibacterial activity against Escherichia coli ATCC 25922 (CO-ADD:GN_001); MIC in CAMBH media using NBS plates, by OD(600)
Measured potencies and affinities stand elsewhere.
parameter measured: Inhibition (%)
Write down the numeric answer in % and omit the unit.

line notation: Cc1nnc2c(=O)n(CC(=O)Nc3ccc(Cl)cc3)c3ccccc3n12
Inhibition / %: 2.85
--
line notation: CCCCn1c(=O)c2sccc2n2c(=O)n(CC(=O)NC(C)C)nc12
Inhibition / %: -3.44
--
line notation: Cc1ccc(NC(=O)Cn2c(=O)c3nnc(C)n3c3ccccc32)cc1C
Inhibition / %: 0.02
--
line notation: Cc1ccc(Cn2nc3c(=O)n(-c4cccc(F)c4)ccn3c2=O)cc1
Inhibition / %: -11.98
--
line notation: Cc1ccc(NC(=O)CSc2nc3ccccc3n3cnnc23)c(C)c1
Inhibition / %: -6.3
--
line notation: Cc1cccc(NC(=O)Cn2nc3c(Sc4ccccc4)nccn3c2=O)c1
Inhibition / %: -1.95
--
line notation: CC(C)NC(=O)Cn1nc2nc(Nc3ccc(F)cc3)ccn2c1=O
Inhibition / %: -2.64
--
line notation: Cc1ccc(Oc2nc3ccccc3n3c(=O)n(CC(=O)Nc4ccc5c(c4)OCO5)nc23)cc1
Inhibition / %: -7.69

Task item: Look at this compound and give its reported Inhibition. `CCOc1ccc(-n2ccn3c(SCC(=O)c4cccc(OC)c4)nnc3c2=O)cc1`
Reply: -5.2

Task item: Try `COc1ccc(C(=O)CSc2nnc3c(=O)n(-c4cccc(OC)c4)ccn23)cc1` next.
Reply: -2.33

Task item: Would you mind doing `Cc1cccc(NC(=O)CSc2nnc3c4cc(-c5ccc(F)cc5)nn4ccn23)c1C` as well?
Reply: -13.99

Task item: What do you have for `COc1cccc(-c2noc(Cn3nc4ccc(-c5ccccc5)nn4c3=O)n2)c1OC` ?
Reply: -2.67

Task item: Next entry: `O=C(Cn1nc2c(Oc3ccccc3)nccn2c1=O)Nc1ccccc1F`
Reply: -2.38

Task item: Can you handle `CC(C)(C)OC(=O)CN(c1ccc2c(c1)OCCO2)S(=O)(=O)c1ccc2nncn2c1` next?
Reply: -4.04

Task item: What do you have for `O=C(Cn1nc2c(SC3CCCCC3)nccn2c1=O)N1CCN(c2ccc(F)cc2)CC1` ?
Reply: -3.97

Task item: Do the same for `O=C(CSc1nnc2c(=O)n(-c3cccc(F)c3)ccn12)Nc1ccc(Br)cc1` please
Reply: -2.48
